- System: Saccharomyces cerevisiae BY4741 SeMeCo community
- Experimental Protocol: z-score of prototroph abundance vs DMSO median; higher = larger share of this subpopulation than in DMSO controls
- Condition Details: 10 µM; 24 h; SM minimal medium; subpopulation (auxotrophy): Prototroph
Counter-ions that a name gives are not always drawn.
Recorded Metric: z-score of prototroph abundance

- Compound: "CC(C)Cc1ccc(C(C)C(=O)O)cc1 (stereo not given)"
  Target Or Test System: "Saccharomyces cerevisiae BY4741 SeMeCo community"
  Recorded Number: 3.98
- Compound: "CCOC(=O)CCC(=O)O[C@H]1[C@H](O[C@@H]2[C@@H](C)[C@H](O[C@H]3C[C@@](C)(OC)[C@@H](O)[C@H](C)O3)[C@@H](C)C(=O)O[C@H](CC)[C@@](C)(O)[C@H](O)[C@@H](C)C(=O)[C@H](C)C[C@@]2(C)O)O[C@H](C)C[C@@H]1N(C)C [Erythromycin Ethylsuccinate]"
  Target Or Test System: "Saccharomyces cerevisiae BY4741 SeMeCo community"
  Recorded Number: -2.21
- Compound: "CCCCOc1ccc(CC(=O)NO)cc1"
  Target Or Test System: "Saccharomyces cerevisiae BY4741 SeMeCo community"
  Recorded Number: 1.23
- Compound: "OCCN1CCN(CCCN2c3ccccc3Sc3ccc(Cl)cc32)CC1"
  Target Or Test System: "Saccharomyces cerevisiae BY4741 SeMeCo community"
  Recorded Number: -0.28
- Compound: "CCCOc1ccc(C(=O)OCCN(CC)CC)cc1N [Proparacaine HCl]"
  Target Or Test System: "Saccharomyces cerevisiae BY4741 SeMeCo community"
  Recorded Number: 0.46

* * *

- Tested on: Saccharomyces cerevisiae BY4741 SeMeCo community
- Experimental Protocol: z-score of subpopulation abundance vs DMSO median, subpopulation auxotrophic for LUM; higher = larger share of this subpopulation than in DMSO controls
- Condition Details: 10 µM; 24 h; SM minimal medium; subpopulation (auxotrophy): LUM
Where a name gives a salt, the structure may show the parent alone.
Please mark yes (1) if the recorded z-score of subpopulation abundance is equal to or greater than -0.06, and no (0) if it falls below.

- Compound: "C#CCN(C)Cc1ccccc1 [Pargyline hydrochloride]"
  Target Or Test System: "Saccharomyces cerevisiae BY4741 SeMeCo community"
  Label: "yes (1)"
- Compound: "COc1cc(N)c(Cl)cc1C(=O)NC1CCN(CCCOc2ccc(F)cc2)CC1OC (configuration not stated) [Cisapride hydrate]"
  Target Or Test System: "Saccharomyces cerevisiae BY4741 SeMeCo community"
  Label: "no (0)"
- Compound: "CC(=O)C1C(=O)C=C(C)OC1=O (configuration not stated) [Sodium dehydroacetate]"
  Target Or Test System: "Saccharomyces cerevisiae BY4741 SeMeCo community"
  Label: "yes (1)"
- Compound: "Nc1c(Br)cc(Br)cc1CN[C@H]1CC[C@H](O)CC1 [Ambroxol HCl]"
  Target Or Test System: "Saccharomyces cerevisiae BY4741 SeMeCo community"
  Label: "no (0)"
- Compound: "CCCN[C@H]1CCc2nc(N)sc2C1 [Pramipexole dihydrochloride]"
  Target Or Test System: "Saccharomyces cerevisiae BY4741 SeMeCo community"
  Label: "no (0)"
- Compound: "Cn1c(=O)c2[nH]cnc2n(C)c1=O"
  Target Or Test System: "Saccharomyces cerevisiae BY4741 SeMeCo community"
  Label: "yes (1)"
- Compound: "C[C@@H](O)[C@H]1C(=O)N2C(C(=O)O)=C([C@H]3CCCO3)S[C@H]12 [Faropenem Sodium]"
  Target Or Test System: "Saccharomyces cerevisiae BY4741 SeMeCo community"
  Label: "yes (1)"
- Compound: "CNCCC(Oc1ccc(C(F)(F)F)cc1)c1ccccc1 (configuration not stated) [Fluoxetine HCl]"
  Target Or Test System: "Saccharomyces cerevisiae BY4741 SeMeCo community"
  Label: "yes (1)"
- Compound: "COc1ccc2cc3[n+](cc2c1OC)CCc1cc2c(cc1-3)OCO2 [Berberine chloride]"
  Target Or Test System: "Saccharomyces cerevisiae BY4741 SeMeCo community"
  Label: "no (0)"
- Compound: "Cc1nnc(SCC2=C(C(=O)O)N3C(=O)[C@@H](NC(=O)Cn4cc(Cl)c(=O)c(Cl)c4)[C@H]3SC2)s1"
  Target Or Test System: "Saccharomyces cerevisiae BY4741 SeMeCo community"
  Label: "no (0)"
- Compound: "CN1CCN(CCCN2c3ccccc3Sc3ccc(C(F)(F)F)cc32)CC1 [Trifluoperazine 2HCl]"
  Target Or Test System: "Saccharomyces cerevisiae BY4741 SeMeCo community"
  Label: "yes (1)"
- Compound: "C[C@]12CC[C@@H]3c4ccc(OS(=O)(=O)O)cc4CC[C@H]3[C@@H]1CCC2=O [Estropipate]"
  Target Or Test System: "Saccharomyces cerevisiae BY4741 SeMeCo community"
  Label: "no (0)"
- Compound: "C#C[C@]1(O)CC[C@H]2[C@@H]3CCc4cc(O)ccc4[C@H]3CC[C@@]21C"
  Target Or Test System: "Saccharomyces cerevisiae BY4741 SeMeCo community"
  Label: "no (0)"
- Compound: "OC(CCN1CCCCC1)(c1ccccc1)C1CCCCC1 (configuration not stated) [Trihexyphenidyl hydrochloride]"
  Target Or Test System: "Saccharomyces cerevisiae BY4741 SeMeCo community"
  Label: "yes (1)"
- Compound: "C=C[C@]1(C)C[C@@H](OC(=O)CSC(C)(C)CNC(=O)[C@H](N)C(C)C)[C@]2(C)[C@H](C)CC[C@]3(CCC(=O)[C@H]32)[C@@H](C)[C@@H]1O [Valnemulin HCl]"
  Target Or Test System: "Saccharomyces cerevisiae BY4741 SeMeCo community"
  Label: "yes (1)"

* * *

- Test system: Saccharomyces cerevisiae BY4741 SeMeCo community
- Experimental Protocol: z-score of subpopulation abundance vs DMSO median, subpopulation auxotrophic for H; higher = larger share of this subpopulation than in DMSO controls
- Condition Details: 10 µM; 24 h; SM minimal medium; subpopulation (auxotrophy): H
Counter-ions that a name gives are not always drawn.

- Compound: "C[C@@H](CN1CC(=O)NC(=O)C1)N1CC(=O)NC(=O)C1 [Dexrazoxane HCl (ICRF-187, ADR-529)]"
  z-score of subpopulation abundance: -0.64
- Compound: "CN1[C@@H]2CC[C@H]1C[C@@H](OC(c1ccccc1)c1ccccc1)C2 [Benztropine mesylate]"
  z-score of subpopulation abundance: -0.75
- Compound: "CC[C@H](C)C(=O)O[C@H]1CCC=C2C=C[C@H](C)[C@H](CC[C@@H]3C[C@@H](O)CC(=O)O3)[C@H]21"
  z-score of subpopulation abundance: -0.21
- Compound: "CO[C@@]1(NC(=O)C(C(=O)O)c2ccc(O)cc2)C(=O)N2C(C(=O)O)=C(CSc3nnnn3C)CO[C@@H]21 (some centres not stated) [Latamoxef sodium]"
  z-score of subpopulation abundance: 0.8
- Compound: "COC(=O)C1=C(C)NC(C)=C(C(=O)OCCN2CCN(C(c3ccccc3)c3ccccc3)CC2)C1c1cccc([N+](=O)[O-])c1 (configuration not stated) [Manidipine 2HCl]"
  z-score of subpopulation abundance: 1.78
- Compound: "Fc1ccc([C@@H]2CCNC[C@H]2COc2ccc3c(c2)OCO3)cc1 [Paroxetine mesylate]"
  z-score of subpopulation abundance: -0.34
- Compound: "CC1(C)S[C@@H]2[C@H](NC(=O)[C@H](N)c3ccc(O)cc3)C(=O)N2[C@H]1C(=O)O [Amoxicillin Sodium]"
  z-score of subpopulation abundance: -0.8

* * *

- System: Saccharomyces cerevisiae BY4741 SeMeCo community
- Experimental Protocol: z-score of prototroph abundance vs DMSO median; higher = larger share of this subpopulation than in DMSO controls
- Condition Details: 10 µM; 24 h; SM minimal medium; subpopulation (auxotrophy): Prototroph
Counter-ions that a name gives are not always drawn.

- Compound: "NC(=O)OCC(COC(N)=O)c1ccccc1 [Felbamate]"
  z-score of prototroph abundance: 1.19
- Compound: "CC(C)C(=O)c1c(C(C)C)nn2ccccc12"
  z-score of prototroph abundance: 0.24
- Compound: "CCOC(=O)c1ccc(N)cc1 [Benzocaine hydrochloride]"
  z-score of prototroph abundance: -0.32
- Compound: "COc1cnc(NS(=O)(=O)c2ccc(N)cc2)nc1"
  z-score of prototroph abundance: 0
- Compound: "Oc1ccc(Cl)c2cccnc12"
  z-score of prototroph abundance: -17.6
- Compound: "CN1CCN2c3ncccc3Cc3ccccc3C2C1 (stereo not given)"
  z-score of prototroph abundance: 0.24
- Compound: "CCOC(=O)OC(C)OC1=C(C(=O)Nc2ccccn2)N(C)S(=O)(=O)c2ccccc21 (stereo not given)"
  z-score of prototroph abundance: 0.81
- Compound: "CCOC(=O)c1ccc(O)cc1"
  z-score of prototroph abundance: -1.38
- Compound: "COc1cc(N)c(Cl)cc1C(=O)NC1CCN(CCCOc2ccc(F)cc2)CC1OC (stereo not given) [Cisapride]"
  z-score of prototroph abundance: 1.03
- Compound: "O=C1C(N(CO)C(=O)NCO)N(CO)C(=O)N1CO (stereo not given)"
  z-score of prototroph abundance: 1.06
